Tested on: HEK-293T
test description: Multiplex assay against HEK293T
Type: toxicity, cell-based
measurement parameters: human, 48 h, 10 µM, compound concentration 10 uM, replicate 2
measure: Population Apoptotic (%)
Write the answer as a number in %, unit excluded.

compound | display unit | Population Apoptotic (%)
Cl.O=c1c2cccn2c2ccccc2n1CCCN1CCC(c2ccc(Cl)cc2)CC1 | % | 98

Which Population Apoptotic (%) value is on record for CCOC(=O)c1c(C)[nH]c2ccc3c(c12)CN1CCc2cc(OC)ccc2C1O3 (centres undefined) ? 93

Which Population Apoptotic (%) value is on record for CN1C2CCC1CC(OC(c1ccc(F)cc1)c1ccc(F)cc1)C2.Cl (centres undefined) ? 75

Which Population Apoptotic (%) value is on record for CCc1cccc(CC)c1NC(=O)c1nn(C)c2c1CCc1cnc(Nc3ccc(C(=O)NC4CCN(C)CC4)cc3OC(F)(F)F)nc1-2 ? 91

Which Population Apoptotic (%) value is on record for CN1CCC(=C2c3ccccc3CC(=O)c3sccc32)CC1.O=C(O)/C=C/C(=O)O [KETOTIFEN FUMARATE] ? 72

Which Population Apoptotic (%) value is on record for Cc1cn(-c2cc(NC(=O)c3ccc(C)c(Nc4nccc(-c5cccnc5)n4)c3)cc(C(F)(F)F)c2)cn1 [NILOTINIB] ? 41

Which Population Apoptotic (%) value is on record for O=C(Cc1ccc(-c2ccc(OCCN3CCOCC3)cc2)cn1)NCc1ccccc1 [TIRBANIBULIN] ? 36

Which Population Apoptotic (%) value is on record for COCC(=O)NC/C=C/c1ccc2ncnc(Nc3ccc(Oc4ccc(C)nc4)c(C)c3)c2c1 [CP-724714] ? 66

Which Population Apoptotic (%) value is on record for Cl.O=C(c1ccc(Nc2nccc(-c3cc4ccccc4s3)n2)cc1)N1CCC(N2CCCC2)CC1 ? 100

###

System: HEK-293T
test description: Multiplex assay against HEK293T
Format: toxicity, cell-based
measurement parameters: human, 24 h, 1 µM, compound concentration 1 uM, replicate 1
Label rule, in plain words: Population Hoechst High Intensity Objects (%) of 20% and up is y, under 20% is n.

Observe how each entry below is paired with its result.
compound | answer label
COc1ccc(-c2ccc3c(N4CCOCC4)nc(N4C[C@@H](C)O[C@@H](C)C4)nc3n2)cc1CO | n
CCn1cc(-c2ccnc3[nH]c(-c4cccc(CN(C)C)c4)cc23)c(-c2ccc(NC(=O)N(C)C)cc2)n1 | n
Cc1ccc2nc(NCCN)c3ncc(C)n3c2c1.O=C(O)C(F)(F)F.O=C(O)C(F)(F)F | n
CCCS(=O)(=O)Nc1ccc(F)c(C(=O)c2c[nH]c3ncc(Cl)cc23)c1F | n
CCOc1cc(C(=O)N2CCC(N3CCN(C)CC3)CC2)ccc1Nc1ncc2c(n1)N(C1CCCC1)c1ccccc1C(=O)N2C | n
Cc1ccc(C(=O)Nc2cccc(C(F)(F)F)c2)cc1Nc1nc(-c2cccnc2)nc2c1cnn2C | n
Cl.Oc1ccc2c3c1O[C@H]1c4[nH]c5c(c4C[C@@]4(O)[C@@H](C2)N(CC2CC2)CC[C@]314)C[C@@]1(O)[C@H]2Cc3ccc(O)c4c3[C@@]1(CCN2CC1CC1)[C@H]5O4 | n
CCCn1c(=O)c2[nH]c(-c3cnn(Cc4cccc(C(F)(F)F)c4)c3)nc2n(CC)c1=O | y
CN1C2CCC1CC(OC(c1ccc(F)cc1)c1ccc(F)cc1)C2.Cl (stereo unspecified) | n
COc1cccc2cc(-c3nc([C@H]4CC[C@H](C(=O)O)CC4)n4ncnc(N)c34)[nH]c12 | n

Is it the case that CNc1cc(Oc2cc(C(=O)Nc3cc(N4CCN(C)CC4)cc(C(F)(F)F)c3)ccc2C)ncn1 has Population Hoechst High Intensity Objects (%) reaching or exceeding 20%? y

Is it the case that Cn1nc(C(F)(F)F)cc1-c1cnc(N2CCc3cc(S(=O)(=O)Nc4c(F)cc(Cl)cc4F)cc(N4CCCC4=O)c32)nc1 has Population Hoechst High Intensity Objects (%) reaching or exceeding 20%? n

Is it the case that Cl.O=C(c1ccc(Nc2nccc(-c3cc4ccccc4s3)n2)cc1)N1CCC(N2CCCC2)CC1 has Population Hoechst High Intensity Objects (%) reaching or exceeding 20%? n

Is it the case that CCc1cccc(CC)c1NC(=O)c1nn(C)c2c1CCc1cnc(Nc3ccc(N4CCN(C)CC4)cc3OC)nc1-2 has Population Hoechst High Intensity Objects (%) reaching or exceeding 20%? n

Is it the case that NC(=O)c1cccc(-c2cc(Nc3ccc(OC(F)(F)F)cc3)ncn2)c1 has Population Hoechst High Intensity Objects (%) reaching or exceeding 20%? n

Is it the case that COc1cc2ncnc(Nc3ccc(F)c(Cl)c3)c2cc1NC(=O)/C=C/CN1CCCCC1 [DACOMITINIB ANHYDROUS] has Population Hoechst High Intensity Objects (%) reaching or exceeding 20%? y

###

Tested on: HEK-293T
test description: Multiplex assay against HEK293T
Assay type: toxicity, cell-based
measurement parameters: human, 12 h, 1 µM, compound concentration 1 uM, replicate 2
measure: Total Cell Count
Please reply with the number alone, leaving off any unit.

molecule | Total Cell Count
O=C(Nc1cccnn1)N1CCC(=Cc2cccc(Oc3ccc(C(F)(F)F)cn3)c2)CC1 | 1415
Cl.O=C(c1ccc(Nc2nccc(-c3cc4ccccc4s3)n2)cc1)N1CCC(N2CCCC2)CC1 | 1518
CN1CCC(=C2c3ccccc3CC(=O)c3sccc32)CC1.O=C(O)/C=C/C(=O)O [KETOTIFEN FUMARATE] | 211
O=C(Cc1ccc(-c2ccc(OCCN3CCOCC3)cc2)cn1)NCc1ccccc1 | 231
Cc1cc(C)c(S(=O)(=O)N(Cc2ccc(-c3cccc(S(C)(=O)=O)c3)cc2)Cc2ccc(C(F)(F)F)o2)c(C)c1 | 213

# returns recorded Total Cell Count (system: HEK-293T) for C=CCn1c(=O)c2cnc(Nc3ccc(N4CCN(C)CC4)cc3)nc2n1-c1cccc(C(C)(C)O)n1 1183

# returns recorded Total Cell Count (system: HEK-293T) for Cl.Oc1ccc2c3c1O[C@H]1c4[nH]c5c(c4C[C@@]4(O)[C@@H](C2)N(CC2CC2)CC[C@]314)C[C@@]1(O)[C@H]2Cc3ccc(O)c4c3[C@@]1(CCN2CC1CC1)[C@H]5O4 128

###

Test system: HEK-293T
test description: Multiplex assay against HEK293T
Format: toxicity, cell-based
measurement parameters: human, 48 h, 10 µM, compound concentration 10 uM, replicate 2
measure: Population Pyknosed Nuclei (%)
# output: number + unit

Sample answers from the record:
compound | Population Pyknosed Nuclei (%)
CCOc1cc2ncc(C#N)c(Nc3ccc(OCc4ccccn4)c(Cl)c3)c2cc1NC(=O)/C=C/CN(C)C [NERATINIB] | 16%
CN1C2CCC1CC(OC(c1ccc(F)cc1)c1ccc(F)cc1)C2.Cl (centres undefined) | 34%
CN1CCN(C(=O)C(C)(C)c2ccc(C(=O)Nc3cn4cc(-c5ccncc5)ccc4n3)cc2)CC1 [T3-CLK] | 75%

Now let's try a different one.
Which Population Pyknosed Nuclei (%) value is on record for O=C(Nc1ccc(Cl)cc1)Nc1cccc(-c2cccc(N3CCCC3)n2)c1 ? 54%

###

System: HEK-293T
test description: Multiplex assay against HEK293T
Type: toxicity, cell-based
measurement parameters: human, 48 h, 10 µM, compound concentration 10 uM, replicate 1
Reported Population Membrane Permeable-Phenotype (%) values are given for each entry in this list.
Write the answer as a number in %, unit excluded.

Sample answers from the record:
molecule | display unit | val
CN[C@@H]1C[C@H]2O[C@@](C)([C@@H]1OC)n1c3ccccc3c3c4c(c5c6ccccc6n2c5c31)C(=O)NC4 [STAUROSPORINE] | % | 0
CCCS(=O)(=O)c1nc(NC2CC2)cc(-c2ccc3c(ccn3C3CC(C)(C)NC(C)(C)C3)c2)n1 | % | 31
C=C1/C(=C\C=C2/CCC[C@]3(C)[C@@H]([C@H](C)/C=C/[C@H](C)C(C)C)CC[C@@H]23)C[C@@H](O)C[C@@H]1O [DOXERCALCIFEROL] | % | 5
Cc1ccc(C(=O)Nc2cccc(C(F)(F)F)c2)cc1Nc1nc(-c2cccnc2)nc2c1cnn2C | % | 6
CN(C)C(=O)C(CCN1CCC(O)(c2ccc(Cl)cc2)CC1)(c1ccccc1)c1ccccc1.Cl [LOPERAMIDE HYDROCHLORIDE] | % | 0

Which Population Membrane Permeable-Phenotype (%) value is on record for CCn1c(=O)c(-c2ccc(-c3cncs3)cc2Cl)cc2cnc(Nc3ccc(N4CCN(C)CC4)cc3)nc21 ? 0

Which Population Membrane Permeable-Phenotype (%) value is on record for O=C1N/C(=N/c2ccccc2F)S/C1=C\c1ccc(C(=O)O)cc1 ? 2

Which Population Membrane Permeable-Phenotype (%) value is on record for O=C(Nc1ccc(-c2ccnc(Nc3ccc(N4CCOCC4)cc3)n2)cc1)[C@@H]1CCCN1 ? 4

Which Population Membrane Permeable-Phenotype (%) value is on record for S=C(NCCCc1c[nH]cn1)NCCCN(Cc1ccc(Cl)c(Cl)c1)c1ccc(Br)cn1 ? 0

Which Population Membrane Permeable-Phenotype (%) value is on record for O=C(Nc1ccc(-n2nc(-c3cccnc3)cc2C(F)(F)F)cn1)c1ccc(-c2ccccc2)c(F)c1 [BI 2049] ? 1

Which Population Membrane Permeable-Phenotype (%) value is on record for COCC(=O)NC/C=C/c1ccc2ncnc(Nc3ccc(Oc4ccc(C)nc4)c(C)c3)c2c1 [CP-724714] ? 7

Which Population Membrane Permeable-Phenotype (%) value is on record for Cl.O=c1c2cccn2c2ccccc2n1CCCN1CCC(c2ccc(Cl)cc2)CC1 ? 2
